Quick list: Bliss excess per entry.
- Tested on: EW-7 (Ewing's Sarcoma);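 note: after 72 h of two-drug dosing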
- assay name: Bliss excess, mean over the matrix (fraction); higher = more synergy
In your answer, state the number alone without any accompanying words.

Cn1cnc2c(F)c(Nc3ccc(Br)cc3Cl)c(C(=O)NOCCO)cc21 [Selumetinib] + C=CCn1c(=O)c2cnc(Nc3ccc(N4CCN(C)CC4)cc3)nc2n1-c1cccc(C(C)(C)O)n1 [AZD1775] (first compound max 10 µM, partner max 1 µM)	-0.0115

Prompt: Form field: reported Bliss excess of CN(CCO)CC[C@H](CSc1ccccc1)Nc1ccc(S(=O)(=O)NC(=O)c2ccc(N3CCC([C@@H](O)c4ccccc4-c4ccc(Cl)cc4)CC3)cc2)cc1S(=O)(=O)C(F)(F)F [AZD4320] + Cn1cnc2c(F)c(Nc3ccc(Br)cc3Cl)c(C(=O)NOCCO)cc21 [Selumetinib] (first compound max 1 µM, 7x7, partner max 3 µM)
Completion: 0.0295

Prompt: Form field: reported Bliss excess of CN(C)CCCOc1ccc(-c2ccc3ncc4c(c3c2)n(C2CCOCC2)c(=O)n4C)cn1 [AZD0156] + O=C(c1cc(Cc2n[nH]c(=O)c3ccccc23)ccc1F)N1CCN(C(=O)C2CC2)CC1 [Olaparib] (first compound max 3 µM, partner max 3 µM)
Completion: 0.119

Prompt: Form field: reported Bliss excess of CC1(C)CCC(CN2CCN(c3ccc(C(=O)NS(=O)(=O)c4ccc(NCC5CCOCC5)c([N+](=O)[O-])c4)c(Oc4cnc5[nH]ccc5c4)c3)CC2)=C(c2ccc(Cl)cc2)C1 [Venetoclax] + C1CN(CCC1(C(=O)N[C@@H](CCO)C2=CC=C(C=C2)Cl)N)C3=NC=NC4=C3C=CN4 [Capivasertib] (first compound max 1 µM, 7x7, partner max 3 µM)
Completion: -0.0149

Reference source for all entries: the supplement of paper PMC11061612
